test: In vitro urine stability assay (HPLC) of In-111 labeled peptide; assay type: in vitro ADME; details: rat urine, t = 0
Where a SMILES comes first, the peptide text is derived from it. [ ]: non-standard residue; d: D form. The star is where a group is joined. DTPA = O=C(O)CN(CCN(CC(=O)O)CC(=O)O)CCN(CC(=O)O)CC(=O)*; Phe(4-guanidino) = N=C(N)Nc1ccc(C[C@H](N)C(=O)O)cc1
endpoint: HPLC Evaluation of Urine Stability at 37EC, Urine, t = 0 (%)
Reply numerically in %, unit not repeated.

Request the reported HPLC Evaluation of Urine Stability at 37EC, Urine, t = 0 associated with CC[C@H](C)[C@H](NC(=O)[C@H](Cc1ccc(O)cc1)NC(=O)[C@@H]1CCCN1C(=O)C(Cc1ccc(NC(=N)N)cc1)NC(=O)[C@H](CCCNC(=N)N)NC(=O)[C@@H]1CCCN1C(=O)[C@@H](CCCCN)NC(=O)CN(CCN(CCN(CC(=O)O)CC(=O)O)CC(=O)O)CC(=O)O)C(=O)N[C@@H](CC(C)C)C(=O)O (single isomer, unassigned) [In-111-DTPA-DK-P-R-F(Gu)-P-Y-I-L, metal not drawn] 90.4

Can you share its HPLC Evaluation of Urine Stability at 37EC, Urine, t = 0? I mean this compound: CC[C@H](C)[C@H](NC(=O)[C@H](Cc1ccc(O)cc1)NC(=O)[C@@H]1CCCN1C(=O)[C@H](Cc1ccc(NC(=N)N)cc1)NC(=O)[C@H](Cc1ccc(NC(=N)N)cc1)NC(=O)[C@@H]1CCCN1C(=O)[C@@H](CCCCN)NC(=O)CN(CCN(CCN(CC(=O)O)CC(=O)O)CC(=O)O)CC(=O)O)C(=O)N[C@@H](CC(C)C)C(=O)O [In-111-DTPA-DK-P-F(Gu)-F(Gu)-P-Y-I-L, metal not drawn] ({DTPA}-[dK]P[Phe(4-guanidino)][Phe(4-guanidino)]PYIL-OH; C-terminus assumed) 92.3

====

test: In vitro urine stability assay (HPLC) of In-111 labeled peptide; format: in vitro ADME; settings: rat urine, 37EC, 4 hours
endpoint: % of compound present at 4 hours in urine
Dear colleague, please send the value followed by its unit.

Recorded % of compound present at 4 hours in urine for CC[C@H](C)[C@H](NC(=O)[C@H](Cc1ccc(O)cc1)NC(=O)[C@@H]1CCCN1C(=O)[C@H](CCCNC(=N)N)NC(=O)C(CCc1ccnc(N)n1)NC(=O)[C@@H]1CCCN1C(=O)[C@@H](CCCCN)NC(=O)CN(CCN(CCN(CC(=O)O)CC(=O)O)CC(=O)O)CC(=O)O)C(=O)N[C@@H](CC(C)C)C(=O)O (single isomer, unassigned) , please? 6.0%

Request the reported % of compound present at 4 hours in urine associated with CC[C@H](C)[C@H](NC(=O)[C@H](Cc1ccc(O)cc1)NC(=O)[C@@H]1CCCN1C(=O)[C@H](CCCNC(=N)N)NC(=O)C(NC(=O)[C@@H]1CCCN1C(=O)[C@@H](CCCCN)NC(=O)CN(CCN(CCN(CC(=O)O)CC(=O)O)CC(=O)O)CC(=O)O)C1CCN(C(=N)N)CC1)C(=O)N[C@@H](CC(C)C)C(=O)O (single isomer, unassigned) 16.6%

May I ask what % of compound present at 4 hours in urine has been recorded for CC[C@H](C)[C@H](NC(=O)[C@H](Cc1ccc(O)cc1)NC(=O)[C@@H]1CCCN1C(=O)[C@H](CCCNC(=N)N)NC(=O)[C@H](CCCNC(=N)N)NC(=O)CN(CCN(CCN(CC(=O)O)CC(=O)O)CC(=O)O)CC(=O)O)C(=O)N[C@@H](CC(C)C)C(=O)O [DTPA-Arg-Arg-Pro-Tyr-Ile-Leu-OH, reference compound] ? 13.0%

Could you tell me which % of compound present at 4 hours in urine is on file for CC[C@H](C)[C@H](NC(=O)[C@H](Cc1ccc(O)cc1)NC(=O)[C@@H]1CCCN1C(=O)[C@H](CCCNC(=N)N)NC(=O)C(Cc1ccc(NC(=N)N)cc1)NC(=O)[C@@H]1CCCN1C(=O)[C@@H](CCCCN)NC(=O)CN(CCN(CCN(CC(=O)O)CC(=O)O)CC(=O)O)CC(=O)O)C(=O)N[C@@H](CC(C)C)C(=O)O (stereo partly shown) ? 1.5%

====

assay: In vitro urine stability assay (HPLC) of In-111 labeled peptide; assay type: in vitro ADME; settings: rat, 37EC, t = 4 h, read-out: HPLC Evaluation of Urine Stability at 37EC, Urine, t = 4 h
endpoint: remaining at 4 h (%)
Return type: number; implicit unit %.

Any idea what remaining at 4 h was measured for CC[C@H](C)[C@H](NC(=O)[C@H](Cc1ccc(O)cc1)NC(=O)[C@@H]1CCCN1C(=O)[C@H](CCCNC(=N)N)NC(=O)[C@H](CCCNC(=N)N)NC(=O)CN(CCN(CCN(CC(=O)O)CC(=O)O)CC(=O)O)CC(=O)O)C(=O)N[C@@H](CC(C)C)C(=O)O [In-111-DTPA-R-R-P-Y-I-L, metal not drawn, reference compound] ? 13

====

experiment: In vitro serum stability assay (HPLC) of In-111 labeled peptide; type: in vitro ADME, human; conditions: human serum, 37EC, t = 4 h; read-out: HPLC Evaluation of Serum Stability at 37EC, Serum, t = 4 h
endpoint: remaining at 4 h (%)
Answer format: numeric, % implied, no suffix.

Give its remaining at 4 h value. Item: CC[C@H](C)[C@H](NC(=O)[C@H](Cc1ccc(O)cc1)NC(=O)[C@@H]1CCCN1C(=O)C(CCc1ccnc(N)n1)NC(=O)[C@H](CCCNC(=N)N)NC(=O)[C@@H]1CCCN1C(=O)[C@@H](CCCCN)NC(=O)CN(CCN(CCN(CC(=O)O)CC(=O)O)CC(=O)O)CC(=O)O)C(=O)N[C@@H](CC(C)C)C(=O)O (single isomer, unassigned) [In-111-DTPA-DK-P-R-Aba(Apy)-P-Y-I-L, metal not drawn] 15.7

====

Hi there, I'd appreciate the recorded % of peptide at 4 hours after incubation at 37EC, Urine for every entry that follows.
test: In vitro urine stability assay (HPLC) of In-111 labeled peptide; format: in vitro ADME; conditions: rat urine, 37EC, 4 hours
Where a SMILES comes first, the peptide text is derived from it. [ ]: non-standard residue; d: D form. The star is where a group is joined. ξ: configuration not given here. DTPA = O=C(O)CN(CCN(CC(=O)O)CC(=O)O)CCN(CC(=O)O)CC(=O)*; ξGly(4-Pip(1-amidino)) = N=C(N)N1CCC(C(N)C(=O)O)CC1; ξPhe(4-guanidino) = N=C(N)Nc1ccc(CC(N)C(=O)O)cc1; Cha = N[C@@H](CC1CCCCC1)C(=O)O; Tle = CC(C)(C)[C@H](N)C(=O)O; Aze = O=C(O)[C@@H]1CCN1
Answer in %, number only, no unit symbol.

Could you tell me which % of peptide at 4 hours after incubation at 37EC, Urine is on file for CC(C)C[C@H](NC(=O)[C@@H](NC(=O)[C@H](Cc1ccc(O)cc1)NC(=O)[C@@H]1CCCN1C(=O)[C@H](CCCNC(=N)N)NC(=O)C(NC(=O)[C@@H]1CCN1C(=O)[C@@H](CCCCN)NC(=O)CN(CCN(CCN(CC(=O)O)CC(=O)O)CC(=O)O)CC(=O)O)C1CCN(C(=N)N)CC1)C(C)(C)C)C(=O)O (stereo partly drawn) ({DTPA}-[dK][Aze][ξGly(4-Pip(1-amidino))]RPY[Tle]L-OH) ? 49.8

If you can, please state the reported % of peptide at 4 hours after incubation at 37EC, Urine value of CC(C)C[C@H](NC(=O)[C@@H](NC(=O)[C@H](Cc1ccc(O)cc1)NC(=O)[C@@H]1CCCN1C(=O)[C@H](CCCNC(=N)N)NC(=O)C(Cc1ccc(NC(=N)N)cc1)NC(=O)[C@@H]1CCCN1C(=O)[C@@H](CCCCN)NC(=O)CN(CCN(CCN(CC(=O)O)CC(=O)O)CC(=O)O)CC(=O)O)C(C)(C)C)C(=O)O (stereo partly drawn) [Compound IX] ({DTPA}-[dK]P[ξPhe(4-guanidino)]RPY[Tle]L-OH) . 51.1

If you can, please state the reported % of peptide at 4 hours after incubation at 37EC, Urine value of CC(C)(C)[C@H](NC(=O)[C@H](Cc1ccc(O)cc1)NC(=O)[C@@H]1CCCN1C(=O)[C@H](CCCNC(=N)N)NC(=O)C(NC(=O)[C@@H]1CCCN1C(=O)[C@@H](CCCCN)NC(=O)CN(CCN(CCN(CC(=O)O)CC(=O)O)CC(=O)O)CC(=O)O)C1CCN(C(=N)N)CC1)C(=O)N[C@@H](CC1CCCCC1)C(=O)O (stereo partly drawn) ({DTPA}-[dK]P[ξGly(4-Pip(1-amidino))]RPY[Tle][Cha]-OH) . 65.9
